# Target of assay: IgE-Tb / soluble IgE receptor FcεRIα with a Y131A mutation (Homo sapiens, UniProt P01854, N146Q/N252Q)
# Construct: fused on or other part: Terbium chelate (LanthaScreen amine-reactive) on IgE-Fc; Alexa Fluor 488 hydrazide on the oxidised glycans of sFcεRIα; Both are labels and no part of the key
# Sequence (P01854 104-427 N146Q/N252Q): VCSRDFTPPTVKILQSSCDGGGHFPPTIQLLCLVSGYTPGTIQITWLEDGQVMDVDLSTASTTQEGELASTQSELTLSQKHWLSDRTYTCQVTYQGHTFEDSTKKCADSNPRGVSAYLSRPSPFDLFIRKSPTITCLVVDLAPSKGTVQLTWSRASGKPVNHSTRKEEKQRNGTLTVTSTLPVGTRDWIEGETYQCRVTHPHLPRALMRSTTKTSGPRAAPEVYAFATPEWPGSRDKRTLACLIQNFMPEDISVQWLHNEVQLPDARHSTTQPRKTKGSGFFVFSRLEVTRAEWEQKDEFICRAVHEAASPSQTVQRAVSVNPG
# Sequence (P12319 26-201 Y156A partner): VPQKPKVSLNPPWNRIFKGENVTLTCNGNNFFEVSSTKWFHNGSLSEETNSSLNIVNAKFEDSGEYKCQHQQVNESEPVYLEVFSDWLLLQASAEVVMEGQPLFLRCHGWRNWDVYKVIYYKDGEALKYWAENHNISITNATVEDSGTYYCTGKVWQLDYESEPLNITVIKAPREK
# Assay: in vitro FRET assay: binding of IgE-Tb to receptor FcεRIα-Y131A-AF488 and its inhibition by compounds
# Experimental setup: 5 nM IgE-Tb, 25 nM FcεRIα-Y131A-AF488, 2 hours at room temperature; read-out: FRET IC50 range
pIC50: −log10 of the molar value. Counter-ions that a name gives are not always drawn.
Readout kind: pIC50

Worked examples follow.
>>> df
                                   compound  readout_kind    data_value
0  Cc1ncccc1-n1cnnc1NC1Cc2cc3cnc(C4CC4)cc3c(S(=O)(=O)NCC(C)(C)F)c2C1 (stereo not drawn) [Example 78]         pIC50  5.70 to 7.00
1  CC(C)(F)CNS(=O)(=O)c1c2c(cc3cnc(C4CC4)cc13)C[C@@H](Nc1cnc(C(=O)O)c3ccccc13)C2 [Example 138]         pIC50  7.00 to 7.30

Please supply pIC50 for each of the following items, keeping them in order.
1. CCOC(=O)c1nnc(N[C@@H]2Cc3cc4cnc(C5CC5)cc4c(S(=O)(=O)NCC(C)(C)F)c3C2)s1 [Example 64]
2. COc1nc(C2CC2)cc2c(S(=O)(=O)NCC(C)(C)F)c3c(cc12)CC(Nc1ccc(C2(O)COC2)nc1)C3 (stereo not drawn) [Example 26]
3. Cn1ccc(NC2Cc3cc4cnc(C5CC5)cc4c(S(=O)(=O)NCC(C)(C)F)c3C2)cc1=O (stereo not drawn) [Example 96, formate salt]
4. CC(C)(F)CNS(=O)(=O)c1c2c(cc3cnc(C4CC4)cc13)C[C@@H](Nc1cncc3nn(CCO)cc13)C2 [Example 106]
5. CC(C)CNS(=O)(=O)c1c2c(cc3cnc(C4CC4)cc13)CCC2 [Example 69]
6. CC(C)CNS(=O)(=O)N1Cc2cc3cnc(C4CC4)cc3c(S(=O)(=O)NCC(C)(C)F)c2C1 [Example 99]

## Result
["7.30 to 8.00", "5.70 to 7.00", "7.30 to 8.00", "7.30 to 8.00", "7.00 to 7.30", "5.70 to 7.00"]

Please supply pIC50 for each of the following items, keeping them in order.
1. Cc1noc(-c2ccc(N[C@@H]3Cc4cc5cnc(C6CC6)cc5c(S(=O)(=O)NCC(C)(C)F)c4C3)cn2)n1 [Example 36]
2. COC(=O)c1ccc(NC2Cc3cc4c(F)nc(C5CC5)cc4c(S(=O)(=O)NCC(C)(C)F)c3C2)cn1 (stereo not drawn) [Example 24]
3. CC(C)(F)CNS(=O)(=O)c1c2c(cc3cnc(C4CC4)cc13)C[C@@H](NC(=O)c1n[nH]c3cc(Br)ccc13)C2 [Example 141]
4. CC(C)CNS(=O)(=O)c1c2c(cc3cnc(C4CC4)cc13)CCC2O (stereo not drawn) [Example 48]
5. CC(=O)c1ccc(N[C@@H]2Cc3cc4cnc(C5CC5)cc4c(S(=O)(=O)NCC(C)(C)F)c3C2)cc1 [Example 114]
6. CC(C)(F)CNS(=O)(=O)c1c2c(cc3nnc(C4CC4)cc13)CC(NC(=O)OC(C)(C)C)C2 (stereo not drawn) [Example 65]
7. CC(C)(F)CNS(=O)(=O)c1c2c(cc3cnc(C4CC4)cc13)CC(Nc1cc[nH]c(=O)c1)C2 (stereo not drawn) [Example 63]

## Result
["8.00 to 9.00", "7.30 to 8.00", "5.70 to 7.00", "5.70 to 7.00", "7.00 to 7.30", "5.70 to 7.00", "7.30 to 8.00"]
